This listing pairs sequences with measured self-splicing fitness (ln).
- PROCEDURE_DETAILS: self-splicing fitness, log relative to wild type (ln ratio); higher = more splicing; Tetrahymena group I intron in knt gene, E. coli kanamycin selection, DiMSum; sequences stand for … in CUCUCU…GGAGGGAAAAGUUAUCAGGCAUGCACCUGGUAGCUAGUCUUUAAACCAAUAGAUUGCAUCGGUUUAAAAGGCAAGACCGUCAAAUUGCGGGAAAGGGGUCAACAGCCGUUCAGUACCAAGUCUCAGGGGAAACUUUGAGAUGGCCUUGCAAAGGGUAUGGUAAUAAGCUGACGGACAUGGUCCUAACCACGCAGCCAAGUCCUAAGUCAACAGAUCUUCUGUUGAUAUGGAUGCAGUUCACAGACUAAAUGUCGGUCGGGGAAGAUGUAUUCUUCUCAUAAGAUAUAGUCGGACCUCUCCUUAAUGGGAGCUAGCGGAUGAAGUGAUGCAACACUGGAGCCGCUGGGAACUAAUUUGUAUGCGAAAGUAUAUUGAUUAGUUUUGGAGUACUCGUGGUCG;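 note: selection with 25 µg/mL kanamycin versus none on LB agar overnight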
- RECORDED_CONDITIONS: 30 °C
REPORTED_PROPERTY: self-splicing fitness (ln)

INSERT INTO measurements (residue_string, reported_property, reported_value) VALUES
  ('UUGUAGCAAUAUUACGAAUA', 'self-splicing fitness (ln)', -1.74),
  ('GUGCAGCAAUAUUACGCACA', 'self-splicing fitness (ln)', -3.26),
  ('CCGCAGCAAUAUUACGAGAA', 'self-splicing fitness (ln)', -3.07),
  ('ACAGAGCAAUAUUACGCCGU', 'self-splicing fitness (ln)', -2.59),
  ('AAUAAGCAAUAUUACGCGGA', 'self-splicing fitness (ln)', -2.57),
  ('ACAUAGCAAUAUUACGUAUU', 'self-splicing fitness (ln)', -4.38),
  ('UGACAGCAAUAUUACGCUUU', 'self-splicing fitness (ln)', -3.43),
  ('GGAAAGCAAUAUUACGCUAC', 'self-splicing fitness (ln)', -1.91),
  ('UAGCAGCAAUAUUACGAAUU', 'self-splicing fitness (ln)', -2.58),
  ('AAAAAGCAAUAUUACGCUCA', 'self-splicing fitness (ln)', -0.278),
  ('UACCAGCAAUAUUACGCUUU', 'self-splicing fitness (ln)', -1.86),
  ('AGGGAGCAAUAUUACGGUCA', 'self-splicing fitness (ln)', -2.38),
  ('CGCAAGCAAUAUUACGCUAG', 'self-splicing fitness (ln)', -2.46),
  ('AUACAGCAAUAUUACGUGUA', 'self-splicing fitness (ln)', -2.3),
  ('UCCAAGCAAUAUUACGCGAA', 'self-splicing fitness (ln)', -2.43),
  ('UGGAAGCAAUAUUACGCGCC', 'self-splicing fitness (ln)', -3.22),
  ('CUUAAGCAAUAUUACGACUU', 'self-splicing fitness (ln)', -4.36),
  ('AUGAAGCAAUAUUACGUGGA', 'self-splicing fitness (ln)', -2.73),
  ('CACGAGCAAUAUUACGUGCU', 'self-splicing fitness (ln)', -2.25),
  ('GUUCAGCAAUAUUACGCUUG', 'self-splicing fitness (ln)', -1.54),
  ('UCAGAGCAAUAUUACGAAAU', 'self-splicing fitness (ln)', -3.56),
  ('UAUGAGCAAUAUUACGGCUG', 'self-splicing fitness (ln)', -1.01),
  ('GUCCAGCAAUAUUACGAAAC', 'self-splicing fitness (ln)', -0.222),
  ('UUUGAGCAAUAUUACGGCCG', 'self-splicing fitness (ln)', -2.02),
  ('AUGAAGCAAUAUUACGACCA', 'self-splicing fitness (ln)', 0.00939),
  ('UGGCAGCAAUAUUACGCCUU', 'self-splicing fitness (ln)', -1.65),
  ('AGCUAGCAAUAUUACGACGG', 'self-splicing fitness (ln)', -1.66),
  ('CAGCAGCAAUAUUACGUGCC', 'self-splicing fitness (ln)', -3.2),
  ('GCCGAGCAAUAUUACGAUGA', 'self-splicing fitness (ln)', -2.38),
  ('AAUCAGCAAUAUUACGCACA', 'self-splicing fitness (ln)', -0.245),
  ('AAGUAGCAAUAUUACGAAGG', 'self-splicing fitness (ln)', -2.75),
  ('UACAAGCAAUAUUACGACGG', 'self-splicing fitness (ln)', -0.767),
  ('GAUAAGCAAUAUUACGAAGA', 'self-splicing fitness (ln)', -3.41),
  ('CAACAGCAAUAUUACGUAUU', 'self-splicing fitness (ln)', -3.48),
  ('UUUGAGCAAUAUUACGAACU', 'self-splicing fitness (ln)', -3.36),
  ('AGCUAGCAAUAUUACGGGGU', 'self-splicing fitness (ln)', -2.6),
  ('CGCAAGCAAUAUUACGCCUA', 'self-splicing fitness (ln)', -0.46),
  ('UCGAAGCAAUAUUACGCACU', 'self-splicing fitness (ln)', -2.62),
  ('GCACAGCAAUAUUACGAACA', 'self-splicing fitness (ln)', -1.42),
  ('AUAAAGCAAUAUUACGCCCU', 'self-splicing fitness (ln)', 0.347),
  ('UCCGAGCAAUAUUACGCGUG', 'self-splicing fitness (ln)', -2.6),
  ('GCGAAGCAAUAUUACGCAAG', 'self-splicing fitness (ln)', -2.51),
  ('CCUCAGCAAUAUUACGUAGG', 'self-splicing fitness (ln)', -2.71),
  ('GUUCAGCAAUAUUACGAGGU', 'self-splicing fitness (ln)', -2.25);

---

- PROCEDURE_DETAILS: self-splicing fitness, log relative to wild type (ln ratio); higher = more splicing; Tetrahymena group I intron in knt gene, E. coli kanamycin selection, DiMSum; sequences stand for … in CUCUCU…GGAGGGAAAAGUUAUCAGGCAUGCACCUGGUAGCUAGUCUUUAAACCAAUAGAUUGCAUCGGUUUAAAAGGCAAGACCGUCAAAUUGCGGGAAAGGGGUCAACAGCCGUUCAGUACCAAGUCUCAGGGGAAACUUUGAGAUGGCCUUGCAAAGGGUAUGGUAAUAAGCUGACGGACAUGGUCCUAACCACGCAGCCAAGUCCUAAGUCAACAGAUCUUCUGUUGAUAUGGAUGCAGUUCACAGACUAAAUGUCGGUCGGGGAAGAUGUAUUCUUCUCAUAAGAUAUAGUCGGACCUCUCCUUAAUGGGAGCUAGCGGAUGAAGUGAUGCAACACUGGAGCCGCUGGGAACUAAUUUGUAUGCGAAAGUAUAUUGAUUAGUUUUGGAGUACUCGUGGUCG
- RECORDED_CONDITIONS: 37 °C
REPORTED_PROPERTY: self-splicing fitness (ln)

INSERT INTO results (residue_string, reported_property, reported_value) VALUES
  ('CCCAAGCAAUAUUACGCAUU', 'self-splicing fitness (ln)', -2.04),
  ('GUGGAGCAAUAUUACGGUAA', 'self-splicing fitness (ln)', -2.95),
  ('GUCCAGCAAUAUUACGGUCU', 'self-splicing fitness (ln)', -1.2),
  ('CACUAGCAAUAUUACGACUA', 'self-splicing fitness (ln)', -1.43),
  ('GGAUAGCAAUAUUACGCGCA', 'self-splicing fitness (ln)', 0.0709),
  ('GUCAAGCAAUAUUACGUAAA', 'self-splicing fitness (ln)', -0.463),
  ('CUUAAGCAAUAUUACGCACG', 'self-splicing fitness (ln)', -0.394),
  ('AGACAGCAAUAUUACGACUC', 'self-splicing fitness (ln)', -0.623),
  ('UACGAGCAAUAUUACGAGCG', 'self-splicing fitness (ln)', -0.262),
  ('UUUCAGCAAUAUUACGCGGC', 'self-splicing fitness (ln)', -1.74),
  ('GAACAGCAAUAUUACGAUGG', 'self-splicing fitness (ln)', -1.17),
  ('GGCUAGCAAUAUUACGCGGU', 'self-splicing fitness (ln)', -3.63),
  ('UUUCAGCAAUAUUACGACCG', 'self-splicing fitness (ln)', -0.377),
  ('GCGCAGCAAUAUUACGUUUU', 'self-splicing fitness (ln)', -0.277);

---

- PROCEDURE_DETAILS: self-splicing fitness, log relative to wild type (ln ratio); higher = more splicing; Tetrahymena group I intron in knt gene, E. coli kanamycin selection, DiMSum; sequences stand for … in CUCUCU…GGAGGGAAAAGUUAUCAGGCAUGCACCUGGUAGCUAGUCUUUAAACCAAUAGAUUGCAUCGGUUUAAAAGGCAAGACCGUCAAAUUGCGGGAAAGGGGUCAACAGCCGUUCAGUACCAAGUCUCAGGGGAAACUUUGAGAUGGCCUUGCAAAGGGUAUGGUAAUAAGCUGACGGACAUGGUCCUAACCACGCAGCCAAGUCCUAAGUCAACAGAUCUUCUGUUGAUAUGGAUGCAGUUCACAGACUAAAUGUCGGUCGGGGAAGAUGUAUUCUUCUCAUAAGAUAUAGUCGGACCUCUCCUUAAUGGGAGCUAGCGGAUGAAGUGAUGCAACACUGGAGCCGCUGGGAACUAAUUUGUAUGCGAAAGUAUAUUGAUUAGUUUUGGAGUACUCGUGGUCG
- RECORDED_CONDITIONS: 37 °C
REPORTED_PROPERTY: self-splicing fitness (ln)

INSERT INTO measurements (residue_string, reported_value) VALUES
  ('GGGUAGCAAUAUUACGUUUA', -0.381),
  ('AGGUAGCAAUAUUACGCAGC', -2.67),
  ('UAAUAGCAAUAUUACGUUUA', -1.81),
  ('GUCGAGCAAUAUUACGACGG', -1.72),
  ('ACGGAGCAAUAUUACGUCAA', -2.94),
  ('CCACAGCAAUAUUACGGAUG', -1.19),
  ('UUAGAGCAAUAUUACGUUAA', -0.197),
  ('AAGAAGCAAUAUUACGCAGU', -2.08),
  ('CCGGAGCAAUAUUACGAAAG', -1.05),
  ('GUCGAGCAAUAUUACGUCAG', -2.98),
  ('GUCGAGCAAUAUUACGGUUU', -1.44),
  ('GUAUAGCAAUAUUACGGUCC', -1.19),
  ('GUUAAGCAAUAUUACGAUGC', -0.241),
  ('UGGAAGCAAUAUUACGUUUG', -0.645),
  ('AGCUAGCAAUAUUACGUUUC', -2.56),
  ('CCUGAGCAAUAUUACGUUAC', -3.09),
  ('GCCAAGCAAUAUUACGUGCG', -0.737),
  ('CUCCAGCAAUAUUACGAUGG', -3.19),
  ('AUGCAGCAAUAUUACGAUAA', 0.424),
  ('GACGAGCAAUAUUACGUGGU', -2.77),
  ('GAUCAGCAAUAUUACGAAGA', -0.0626),
  ('GUGUAGCAAUAUUACGCGAG', -0.997),
  ('CGACAGCAAUAUUACGCUCG', -2.18),
  ('CCUCAGCAAUAUUACGGUGU', -1.76),
  ('AAAGAGCAAUAUUACGUGAG', -1.02),
  ('CGAAAGCAAUAUUACGGCCA', -1.23),
  ('UCCUAGCAAUAUUACGGUUU', -1.16),
  ('AGAGAGCAAUAUUACGAUUG', -2.88),
  ('GAAGAGCAAUAUUACGAGUU', -2.03),
  ('AUGCAGCAAUAUUACGAAUU', -0.246),
  ('UGUCAGCAAUAUUACGCACU', -0.0217),
  ('UGCCAGCAAUAUUACGACGC', -1.68),
  ('GAGAAGCAAUAUUACGCAGG', -2.91),
  ('AGAAAGCAAUAUUACGCUCU', -2.58),
  ('UUGUAGCAAUAUUACGAAUA', -1.64),
  ('GCCUAGCAAUAUUACGUGGG', -3.36),
  ('CUCAAGCAAUAUUACGACAC', -2.52),
  ('ACACAGCAAUAUUACGAGAG', -2.37),
  ('CUGUAGCAAUAUUACGGGGU', -2.82),
  ('UUACAGCAAUAUUACGACGA', 0.136),
  ('CUCCAGCAAUAUUACGAGGG', -2.89),
  ('GGUCAGCAAUAUUACGGAGG', -2.54),
  ('GUCUAGCAAUAUUACGGUUC', 0.433),
  ('AAUUAGCAAUAUUACGACUC', 0.0749),
  ('UGCUAGCAAUAUUACGAAAA', -1.72),
  ('GCAAAGCAAUAUUACGCUAC', -2.09),
  ('GCGCAGCAAUAUUACGUAAU', 0.31),
  ('UCUUAGCAAUAUUACGGGCU', -2.26),
  ('GCCCAGCAAUAUUACGAACG', -0.725),
  ('CCAAAGCAAUAUUACGAGAA', -3),
  ('CUCCAGCAAUAUUACGGACA', -0.868),
  ('UGAAAGCAAUAUUACGCGCA', 0.142),
  ('UUGUAGCAAUAUUACGUUGU', -2.81),
  ('GCCCAGCAAUAUUACGGAGA', -0.0159),
  ('GGUAAGCAAUAUUACGAAUG', -2.81),
  ('CGACAGCAAUAUUACGUAUG', -1.36);

Source listed as the supplement of paper PMC7877785.
